- Target under test: T1, full-length beta-Catenin (Uniprot ID P35222) (Homo sapiens (Human), UniProt P35222 1-781)
- T1 construct: also called bCat; B-Catenin
- T1 sequence: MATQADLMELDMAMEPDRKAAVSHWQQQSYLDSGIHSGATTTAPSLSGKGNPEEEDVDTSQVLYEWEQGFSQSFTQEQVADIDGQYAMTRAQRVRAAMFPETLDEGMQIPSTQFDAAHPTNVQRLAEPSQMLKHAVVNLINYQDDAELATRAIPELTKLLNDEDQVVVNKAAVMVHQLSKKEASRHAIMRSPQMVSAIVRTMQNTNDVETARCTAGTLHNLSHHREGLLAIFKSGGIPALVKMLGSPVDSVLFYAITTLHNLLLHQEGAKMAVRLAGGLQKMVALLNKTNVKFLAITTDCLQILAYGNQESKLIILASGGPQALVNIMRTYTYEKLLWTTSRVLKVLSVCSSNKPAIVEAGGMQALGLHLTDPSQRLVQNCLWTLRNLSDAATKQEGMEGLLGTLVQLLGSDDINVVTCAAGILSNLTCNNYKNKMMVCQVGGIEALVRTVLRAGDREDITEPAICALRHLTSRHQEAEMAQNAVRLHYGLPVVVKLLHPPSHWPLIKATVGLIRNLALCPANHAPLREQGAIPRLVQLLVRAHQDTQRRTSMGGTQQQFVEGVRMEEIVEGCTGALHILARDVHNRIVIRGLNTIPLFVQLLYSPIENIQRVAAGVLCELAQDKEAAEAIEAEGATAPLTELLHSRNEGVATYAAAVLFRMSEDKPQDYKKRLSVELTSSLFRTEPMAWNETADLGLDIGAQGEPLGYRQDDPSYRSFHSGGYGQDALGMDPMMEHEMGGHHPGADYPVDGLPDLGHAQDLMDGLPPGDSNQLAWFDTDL
- Protocol text: fluorescence polarization competition; full-length beta-catenin, competitor 5FAM-TCF4(10-53) probe
Starred links: 1 amine or outer side, 2 acyl side, 3 side chain; linkers in the order of their positions; H or OH if unused. Positions of bridges follow the written chain, without caps; N, C: chain ends. Non-standard residues stand in square brackets, D forms with d. Primed or numbered codes have the meaning given here. B5(11) = 2,2-bis(4-pentenyl)glycine = 2-amino-2-(pent-4-en-1-yl)hept-6-enoic acid (stitching residue, bears both staples), C=CCCCC(CCCC=C)(N[*:1])C(=O)[*:2]; B5(4) = 2,2-bis(4-pentenyl)glycine = 2-amino-2-(pent-4-en-1-yl)hept-6-enoic acid (stitching residue), C=CCCCC(CCCC=C)(N[*:1])C(=O)[*:2]; Bta = N[C@@H](Cc1csc2ccccc12)C(=O)O; αAllylPro = C=CC[C@@]1(C(=O)O)CCCN1; NMeH = CN[C@@H](Cc1c[nH]cn1)C(=O)O; S8 = C=CCCCCCC[C@](C)(N)C(=O)O
Item-by-item account of IC50
Quick reminder: number only, in nM, skip the unit.

These solved cases illustrate the format of a correct answer.
XDLXDEAAFNXFXQI (not fully specified; N-terminal Ac; C-terminal NH2; PL3 at 1, B5 at 4, S8 at 11, BztA at 13; stapled PL3-B5 and B5-S8 by olefin metathesis, Stapled peptide; also called Ac-PL3-Asp-Leu-B5-Asp-Glu-Ala-Ala-Phe-Asn-S8-Phe-BztA-Gln-Ile-NH2) [I-733] : 4260
Ac-[αAllylPro]DL[B5(4)]DEAAFN[S8]F[Bta]S-NH2 (staple 1-4, 4-11; also: olefin E/Z not assigned, earlier-eluting staple isomer, Stapled peptide; same description as I-751, earlier eluting staple isomer composition; also called Ac-PL3-Asp-Leu-B5-Asp-Glu-Ala-Ala-Phe-Asn-S8-Phe-BztA-Ser-NH2) [I-750] : 43
Ac-[αAllylPro]DL[B5(11)]DEAAFN[S8]F[Bta][NMeH]-NH2 (staple 1-4, 4-11; not fully specified, Stapled peptide; same description as I-747, earlier eluting staple isomer composition; also called Ac-PL3-Asp-Leu-B5-Asp-Glu-Ala-Ala-Phe-Asn-S8-Phe-BztA-NMeHis-NH2) [I-746] : 5000
XDLXDEAAFNXFXT (not fully specified; N-terminal Ac; C-terminal NH2; PL3 at 1, B5 at 4, S8 at 11, BztA at 13; stapled PL3-B5 and B5-S8 by olefin metathesis, Stapled peptide; also called Ac-PL3-Asp-Leu-B5-Asp-Glu-Ala-Ala-Phe-Asn-S8-Phe-BztA-Thr-NH2) [I-749] : 40
XDLXDEAAFNXFXHI (not fully specified; N-terminal Ac; C-terminal NH2; PL3 at 1, B5 at 4, S8 at 11, BztA at 13; stapled PL3-B5 and B5-S8 by olefin metathesis, Stapled peptide; same description as I-741, earlier eluting staple isomer composition; also called Ac-PL3-Asp-Leu-B5-Asp-Glu-Ala-Ala-Phe-Asn-S8-Phe-BztA-His-Ile-NH2) [I-740] : 376
XDLXDEAAFNXFXQI (not fully specified; N-terminal Ac; C-terminal NH2; PL3 at 1, B5 at 4, S8 at 11, BztA at 13, dIle (D-Ile) at 15; stapled PL3-B5 and B5-S8 by olefin metathesis, Stapled peptide; also called Ac-PL3-Asp-Leu-B5-Asp-Glu-Ala-Ala-Phe-Asn-S8-Phe-BztA-Gln-dIle-NH2) [I-734] : 370
XDLXDEAAFNXFXQA (not fully specified; N-terminal Ac; C-terminal NH2; PL3 at 1, B5 at 4, S8 at 11, BztA at 13; stapled PL3-B5 and B5-S8 by olefin metathesis, Stapled peptide; same description as I-730, earlier eluting staple isomer composition; also called Ac-PL3-Asp-Leu-B5-Asp-Glu-Ala-Ala-Phe-Asn-S8-Phe-BztA-Gln-Ala-NH2) [I-729] : 56
XDLXDEAAFNXFXQI (not fully specified; N-terminal Ac; C-terminal NH2; PL3 at 1, B5 at 4, S8 at 11, BztA at 13; stapled PL3-B5 and B5-S8 by olefin metathesis, Stapled peptide; also called Ac-PL3-Asp-Leu-B5-Asp-Glu-Ala-Ala-Phe-Asn-S8-Phe-BztA-Gln-Ile-NH2) [I-732] : 4220
XDLXDEAAFNXFXHA (not fully specified; N-terminal Ac; C-terminal NH2; PL3 at 1, B5 at 4, S8 at 11, BztA at 13; stapled PL3-B5 and B5-S8 by olefin metathesis, also called Ac-PL3-Asp-Leu-B5-Asp-Glu-Ala-Ala-Phe-Asn-S8-Phe-BztA-His-Ala-NH2) [I-738] : 63
XDLXDEAAFNXFXHI (not fully specified; N-terminal Ac; C-terminal NH2; PL3 at 1, B5 at 4, S8 at 11, BztA at 13; stapled PL3-B5 and B5-S8 by olefin metathesis, Stapled peptide; same description as I-740, later eluting staple isomer composition; also called Ac-PL3-Asp-Leu-B5-Asp-Glu-Ala-Ala-Phe-Asn-S8-Phe-BztA-His-Ile-NH2) [I-741] : 226

## Task Provide only the value of recorded IC50 for XDLXDEAAFNXFXHA (not fully specified; N-terminal Ac; C-terminal NH2; PL3 at 1, B5 at 4, S8 at 11, BztA at 13, dAla (D-Ala) at 15; stapled PL3-B5 and B5-S8 by olefin metathesis, also called Ac-PL3-Asp-Leu-B5-Asp-Glu-Ala-Ala-Phe-Asn-S8-Phe-BztA-His-dAla-NH2) [I-739]
## Result 53

## Task Provide only the value of recorded IC50 for XDLXDEAAFNXFXHI (not fully specified; N-terminal Ac; C-terminal NH2; PL3 at 1, B5 at 4, S8 at 11, BztA at 13, dIle (D-Ile) at 15; stapled PL3-B5 and B5-S8 by olefin metathesis, also called Ac-PL3-Asp-Leu-B5-Asp-Glu-Ala-Ala-Phe-Asn-S8-Phe-BztA-His-dIle-NH2) [I-742]
## Result 159

Ref: patent US20240116985A1
